# TARGET SYSTEM: xanthine oxidase from bovine milk (Bos taurus)
# Sequence (P80457 whole entry): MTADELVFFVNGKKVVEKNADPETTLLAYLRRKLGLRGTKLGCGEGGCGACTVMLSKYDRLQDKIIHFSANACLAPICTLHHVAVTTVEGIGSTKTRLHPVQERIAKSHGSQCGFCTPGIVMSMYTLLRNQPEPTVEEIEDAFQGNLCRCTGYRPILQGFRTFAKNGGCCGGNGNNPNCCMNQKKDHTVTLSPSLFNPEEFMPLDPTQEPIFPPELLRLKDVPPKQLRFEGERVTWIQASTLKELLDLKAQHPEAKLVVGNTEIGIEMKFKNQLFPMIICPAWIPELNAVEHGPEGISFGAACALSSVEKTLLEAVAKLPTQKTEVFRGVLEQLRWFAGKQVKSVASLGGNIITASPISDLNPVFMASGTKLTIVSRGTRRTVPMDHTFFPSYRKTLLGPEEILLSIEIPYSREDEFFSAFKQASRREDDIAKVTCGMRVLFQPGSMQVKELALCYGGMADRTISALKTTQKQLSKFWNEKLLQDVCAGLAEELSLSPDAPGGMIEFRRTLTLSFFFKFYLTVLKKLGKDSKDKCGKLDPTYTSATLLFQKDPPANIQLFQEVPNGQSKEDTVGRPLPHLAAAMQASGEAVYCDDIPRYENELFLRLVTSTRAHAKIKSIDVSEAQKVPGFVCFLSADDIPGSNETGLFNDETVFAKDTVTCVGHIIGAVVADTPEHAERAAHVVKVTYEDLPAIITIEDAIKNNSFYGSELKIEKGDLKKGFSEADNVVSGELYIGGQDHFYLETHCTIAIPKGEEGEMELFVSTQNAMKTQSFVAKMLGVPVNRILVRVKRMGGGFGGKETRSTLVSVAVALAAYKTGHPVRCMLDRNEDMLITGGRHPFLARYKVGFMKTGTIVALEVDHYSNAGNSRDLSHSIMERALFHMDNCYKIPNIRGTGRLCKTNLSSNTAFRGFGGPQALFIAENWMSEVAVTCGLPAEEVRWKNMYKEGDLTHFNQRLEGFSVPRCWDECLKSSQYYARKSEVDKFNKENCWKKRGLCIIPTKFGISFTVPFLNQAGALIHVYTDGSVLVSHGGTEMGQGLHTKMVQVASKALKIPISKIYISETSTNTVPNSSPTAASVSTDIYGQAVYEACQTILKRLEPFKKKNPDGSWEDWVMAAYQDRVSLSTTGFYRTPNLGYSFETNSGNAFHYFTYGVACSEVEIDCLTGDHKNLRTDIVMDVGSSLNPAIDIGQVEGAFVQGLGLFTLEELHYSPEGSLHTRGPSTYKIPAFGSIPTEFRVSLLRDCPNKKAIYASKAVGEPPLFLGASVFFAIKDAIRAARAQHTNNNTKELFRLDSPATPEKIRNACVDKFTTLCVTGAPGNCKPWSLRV
VALUE TYPE: Ki (nM)
I only need the number, in nM, no unit after it.

Which measured Ki value corresponds to O=C(O)c1cc(-c2ccc(Cl)cc2)ncn1 [ALS-28] ?
2700
